Kindly supply the reported IC50 values for the records listed here.
- Test system: Caco-2
- assay: Antiproliferative activity against human Caco2 cells after 72 hrs by ELISA
- Assay type: functional, cell-based
- experimental.context: Caco-2, 72 h

Asked: # input compound: C/C(=N\NC1=NC(=O)CS1)c1ccc(NS(=O)(=O)c2ccc3oc(=O)ccc3c2)cc1 ; wanted: its IC50
Given back: 5.03 to 175 µM

Asked: And what about the compound C/C(=N\Nc1ccc([N+](=O)[O-])cc1[N+](=O)[O-])c1ccc(NS(=O)(=O)c2ccc3oc(=O)ccc3c2)cc1 ?
Given back: 5.03 to 175 µM

Asked: And what about the compound COc1cccc2c1C(=O)c1c(O)c3c(c(O)c1C2=O)C[C@@](O)(C(=O)CO)C[C@@H]3O[C@H]1C[C@H](N)[C@H](O)[C@H](C)O1 [DOXORUBICIN] ?
Given back: 5.13 µM

Asked: And what about the compound C/C(=N\Nc1c(Cl)cc(Cl)cc1Cl)c1ccc(NS(=O)(=O)c2ccc3oc(=O)ccc3c2)cc1 ?
Given back: 5.03 to 175 µM

* * *

- target.or.test.system: Vascular endothelial growth factor receptor 2 (Homo sapiens, UniProt P35968)
- Sequence (P35968 whole entry): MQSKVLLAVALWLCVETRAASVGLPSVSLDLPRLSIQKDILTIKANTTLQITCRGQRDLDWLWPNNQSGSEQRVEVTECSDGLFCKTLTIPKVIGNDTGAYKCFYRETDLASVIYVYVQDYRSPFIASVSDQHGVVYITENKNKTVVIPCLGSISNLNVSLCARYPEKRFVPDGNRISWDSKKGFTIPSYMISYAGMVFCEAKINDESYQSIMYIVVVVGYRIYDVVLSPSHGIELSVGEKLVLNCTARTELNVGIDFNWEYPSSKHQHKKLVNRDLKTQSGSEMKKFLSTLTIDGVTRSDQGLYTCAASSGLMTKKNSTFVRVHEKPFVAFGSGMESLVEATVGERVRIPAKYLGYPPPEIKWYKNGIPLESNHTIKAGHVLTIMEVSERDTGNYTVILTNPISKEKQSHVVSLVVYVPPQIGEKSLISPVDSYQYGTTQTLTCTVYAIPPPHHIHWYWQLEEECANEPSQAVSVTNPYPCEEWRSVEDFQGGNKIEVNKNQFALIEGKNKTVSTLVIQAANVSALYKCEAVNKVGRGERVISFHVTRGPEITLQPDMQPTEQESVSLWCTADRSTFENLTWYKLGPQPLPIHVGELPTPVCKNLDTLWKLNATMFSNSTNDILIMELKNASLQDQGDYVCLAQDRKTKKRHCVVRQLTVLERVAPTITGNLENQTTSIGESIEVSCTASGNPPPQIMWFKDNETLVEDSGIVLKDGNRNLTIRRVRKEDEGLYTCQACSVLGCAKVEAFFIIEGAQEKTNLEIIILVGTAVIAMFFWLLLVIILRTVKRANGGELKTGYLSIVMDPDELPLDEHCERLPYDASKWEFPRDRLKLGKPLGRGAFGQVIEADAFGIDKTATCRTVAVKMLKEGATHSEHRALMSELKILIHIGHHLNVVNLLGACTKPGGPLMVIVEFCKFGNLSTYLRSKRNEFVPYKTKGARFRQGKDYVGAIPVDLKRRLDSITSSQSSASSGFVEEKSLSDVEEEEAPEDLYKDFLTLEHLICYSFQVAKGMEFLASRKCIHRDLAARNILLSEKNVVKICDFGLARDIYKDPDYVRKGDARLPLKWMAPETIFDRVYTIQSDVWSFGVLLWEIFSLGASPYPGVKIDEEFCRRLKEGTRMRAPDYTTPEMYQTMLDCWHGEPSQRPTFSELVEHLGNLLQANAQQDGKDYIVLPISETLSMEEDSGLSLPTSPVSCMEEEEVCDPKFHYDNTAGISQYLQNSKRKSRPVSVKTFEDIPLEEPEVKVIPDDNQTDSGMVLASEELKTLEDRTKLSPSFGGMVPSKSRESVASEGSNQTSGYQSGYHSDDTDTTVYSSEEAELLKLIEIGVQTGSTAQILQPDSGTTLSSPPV
assay.readout: IC50

Asked: # input compound: Cc1ccc(/N=N/c2sc(N3N=C(c4c(O)c5ccccc5oc4=O)CC3c3ccc(N(C)C)cc3)nc2-c2ccccc2)cc1 (stereo unspecified) ; wanted: its IC50
Given back: 34 to 582 nM

* * *

Kindly supply the reported pIC50 values for the records listed here.
- Tested on: A549
- assay: Cytotoxicity against human A549 cells assessed as reduction in cell viability after 68 hrs by MTT assay
- Assay type: functional, cell-based
- experimental.context: A549, 68 h
pIC50: −log10 of the molar value.

Asked: # input compound: CC(=O)O[C@H]1C(=O)[C@@]2(C)[C@H]([C@H](OC(=O)c3ccccc3)[C@]3(O)C[C@H](OC(=O)[C@H](O)[C@@H](NC(=O)c4ccccc4)c4ccccc4)C(C)=C1C3(C)C)[C@]1(OC(C)=O)CO[C@@H]1C[C@@H]2O ; wanted: its pIC50
Given back: 7.85 to 8.48

Asked: And what about the compound Cc1c(Cc2ccc(NC(=O)Nc3ccc(F)c(Cl)c3)nc2)c(=O)oc2cc(O)c(C(C)(C)C)cc12 ?
Given back: 4.71 to 5.78

Asked: And what about the compound Cc1c(Cc2ccc(NC(=O)Nc3cccc(Cl)c3)nc2)c(=O)oc2cc(O)c(C(C)(C)C)cc12 ?
Given back: 5.03 to 5.78

Asked: And what about the compound COc1ccc(NC(=O)Nc2ccc(Cc3c(C)c4cc(C(C)(C)C)c(O)cc4oc3=O)cn2)cc1 ?
Given back: 5.03 to 5.78

* * *

Kindly supply the reported pIC50 values for the records listed here.
- System: BHK-21
- assay: Cytotoxicity against BHK21 cells assessed as reduction in cell viability after 48 hrs by SRB assay
- Assay type: cell-based
- experimental.context: Mesocricetus auratus, BHK-21, 48 h
pIC50: −log10 of the molar value.

Asked: # input compound: O=c1oc2ccccc2cc1-c1nnc2n1N=C(c1ccc(Br)cc1)CS2 ; wanted: its pIC50
Given back: 5.24 to 6.00

Asked: And what about the compound O=c1oc2ccccc2cc1-c1nnc2n1N=C(c1ccc(F)cc1)CS2 ?
Given back: 5.24 to 6.00

Asked: And what about the compound O=c1oc2ccccc2cc1-c1nnc2n1N=C(c1ccc([N+](=O)[O-])cc1)CS2 ?
Given back: 5.24 to 6.00

Asked: And what about the compound Cc1ccc(C2=Nn3c(nnc3-c3cc4ccccc4oc3=O)SC2)cc1 ?
Given back: 5.24 to 6.00

Asked: And what about the compound CC[C@]1(O)C[C@H]2CN(CCc3c([nH]c4ccccc34)[C@@](C(=O)OC)(c3cc4c(cc3OC)N(C=O)[C@H]3[C@@](O)(C(=O)OC)[C@H](OC(C)=O)[C@]5(CC)C=CCN6CC[C@]43[C@@H]65)C2)C1 ?
Given back: 5.97
